target: CYP450 2D6 (Homo sapiens)
Construct: from tissue; host or cells: human liver microsomes
Sequence (P10635 whole entry): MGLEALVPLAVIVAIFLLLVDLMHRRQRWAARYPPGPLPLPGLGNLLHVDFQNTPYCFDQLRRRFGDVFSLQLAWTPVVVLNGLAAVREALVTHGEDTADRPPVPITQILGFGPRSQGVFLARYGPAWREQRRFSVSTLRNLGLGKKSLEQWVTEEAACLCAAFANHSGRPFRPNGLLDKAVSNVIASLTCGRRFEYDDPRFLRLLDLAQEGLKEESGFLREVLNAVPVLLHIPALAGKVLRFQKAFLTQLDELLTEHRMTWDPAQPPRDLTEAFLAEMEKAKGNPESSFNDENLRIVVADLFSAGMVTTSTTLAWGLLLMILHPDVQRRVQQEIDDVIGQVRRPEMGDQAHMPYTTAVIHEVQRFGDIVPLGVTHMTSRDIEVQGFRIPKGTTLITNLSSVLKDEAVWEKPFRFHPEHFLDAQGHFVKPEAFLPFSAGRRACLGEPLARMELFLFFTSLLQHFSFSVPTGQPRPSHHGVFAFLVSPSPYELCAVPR
procedure text: Inhibition of human liver microsome CYP450 enzyme 2D6
Assay type: in vitro ADME
setup conditions: human liver microsomes, 2D6; read-out: IC50
Procedure: 100 mM K-Buffer: 9.5 mL of stock solution A was mixed with 40.5 mL of stock solution B, the total volume was adjusted to 500 mL with ultrapure water, and the buffer was titrated to pH 7.4 with KOH or H3PO4. • Starting material A (1 M potassium dihydrogen phosphate): 136.5 g of potassium dihydrogen phosphate in 1 L of water; • Stock solution B ([…]): 174.2 g of potassium dihydrogen phosphate in 1 L of water. […]

>  <structure smiles>
Cn1ncc2c(N)nc3cc(F)c(C(=O)N(Cc4ccc5c(c4)OC(F)(F)O5)C4CC4)cc3c21

>  <IC50>
> 10 µM

$$$$

----------
The following compounds are listed with their measured Vd values.
procedure text: Pharmacokinetic assay in rats
Format: in vivo, SD rats
setup conditions: SD, plasma, 2 mg/kg; rat, IV 2mpk; read-out: Vz
assay endpoint: Vd (L/kg)

>  <structure smiles>
CN(Cc1ccc2c(c1)OC(F)(F)O2)C(=O)c1ccc2nc(N)c3cnn(C)c3c2c1

>  <units symbol>
L/kg

>  <observed measurement>
3.4

$$$$
>  <structure smiles>
Cn1ncc2c(N)nc3cc(F)c(C(=O)N(Cc4ccc5c(c4)OC(F)(F)O5)C4CC4)cc3c21

>  <units symbol>
L/kg

>  <observed measurement>
5.6

$$$$

----------
# AUC(0-inf) listing for each entry below
procedure text: Pharmacokinetic assay in mice
Type: in vivo, Balb/c mice
setup conditions: male, Balb/c, plasma, 10 mg/kg; mouse, PO 10mpk

>  <structure smiles>
CN(Cc1ccc2c(c1)OC(F)(F)O2)C(=O)c1ccc2nc(N)c3cnn(C)c3c2c1

>  <units symbol>
µM·h

>  <AUC(0-inf)>
18.8

$$$$
>  <structure smiles>
CN(Cc1ccc2c(c1)OC(F)(F)O2)C(=O)c1cc2c(cc1F)nc(N)c1cnn(C)c12

>  <units symbol>
µM·h

>  <AUC(0-inf)>
18.4

$$$$
>  <structure smiles>
CCN(Cc1ccc2c(c1)OC(F)(F)O2)C(=O)c1ccc2nc(N)c3cnn(C)c3c2c1

>  <units symbol>
µM·h

>  <AUC(0-inf)>
12.4

$$$$
>  <structure smiles>
Cn1ncc2c(N)nc3cc(F)c(C(=O)N(Cc4ccc5c(c4)OC(F)(F)O5)C4CC4)cc3c21

>  <units symbol>
µM·h

>  <AUC(0-inf)>
34.5

$$$$

----------
procedure text: Pharmacokinetic assay in rats
Assay type: in vivo, SD rats
setup conditions: plasma, 0.2 mg/kg; rat, IV 0.2mpk

>  <structure smiles>
Cn1ncc2c(N)nc3cc(F)c(C(=O)N4CCOC[C@@H]4c4ccc5c(c4)OC(F)(F)O5)cc3c21

>  <AUC(0-t) / µM·h>
0.148

$$$$

----------
procedure text: Pharmacokinetic assay in rats
Type: in vivo, SD rats
setup conditions: plasma, 0.2 mg/kg; rat, IV 0.2mpk
Experimental: In this experimental example, the pharmacokinetic behavior of the test compounds after administration by intravenous injection (IV) and oral gavage (PO) in SD rats was tested. On the day of administration, rats were weighed for actual body weight, and the administration volume was calculated. […] Plasma concentrations were determined by the LC-MS/MS method. […] The relevant pharmacokinetic parameters were calculated by a linear-log trapezoidal method.

>  <molecule>
Cn1ncc2c(N)nc3cc(F)c(C(=O)N4CCOC[C@@H]4c4ccc5c(c4)OC(F)(F)O5)cc3c21 [Example I-7]

>  <AUC(0-inf) / nM·h>
220

$$$$
